# SYSTEM NAME: UniProt:P14780
# Sequence (P14780 whole entry): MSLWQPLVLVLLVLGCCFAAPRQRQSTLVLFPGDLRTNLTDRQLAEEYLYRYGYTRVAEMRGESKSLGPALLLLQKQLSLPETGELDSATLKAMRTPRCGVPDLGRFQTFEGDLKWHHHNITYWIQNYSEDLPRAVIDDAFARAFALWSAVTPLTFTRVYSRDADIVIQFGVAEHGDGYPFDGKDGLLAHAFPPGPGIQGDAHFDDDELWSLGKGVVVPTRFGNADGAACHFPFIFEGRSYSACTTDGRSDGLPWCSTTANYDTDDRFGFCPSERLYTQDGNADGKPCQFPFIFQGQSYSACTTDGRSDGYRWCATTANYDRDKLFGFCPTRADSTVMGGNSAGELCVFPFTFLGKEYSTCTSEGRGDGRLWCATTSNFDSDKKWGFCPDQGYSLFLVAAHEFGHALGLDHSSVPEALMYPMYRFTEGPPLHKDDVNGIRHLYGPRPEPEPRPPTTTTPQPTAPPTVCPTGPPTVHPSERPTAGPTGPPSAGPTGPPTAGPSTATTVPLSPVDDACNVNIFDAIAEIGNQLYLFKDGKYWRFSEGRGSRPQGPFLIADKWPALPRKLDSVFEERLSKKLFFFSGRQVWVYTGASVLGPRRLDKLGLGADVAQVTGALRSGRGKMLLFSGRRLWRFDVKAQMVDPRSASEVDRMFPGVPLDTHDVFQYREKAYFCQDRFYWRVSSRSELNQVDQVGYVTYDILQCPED
# METHOD SUMMARY: Inhibition of para-amino phenylmercuric acetate-activated MMP9 using Mca-P-L-G-L-Dap(Dnp)-A-R-NH2 as substrate after 1 hr by fluorescence assay
pIC50: −log10 of the molar value.
QUANTITY NAME: pIC50

{"TEST SMILES": "COc1ccc(CCN(CCC(=O)NO)S(=O)(=O)c2ccc(NC(=O)NCc3ccccc3)cc2)cc1", "REPORTED MEASUREMENT": "< 4.60"}
{"TEST SMILES": "COc1ccc(CCN(CCC(=O)NO)S(=O)(=O)c2ccc(S(C)(=O)=O)cc2)cc1", "REPORTED MEASUREMENT": "< 5.22"}
{"TEST SMILES": "COc1ccc(S(=O)(=O)N(CC(=O)NO)Cc2ccc(Cl)cc2)cc1", "REPORTED MEASUREMENT": 7.30}
{"TEST SMILES": "COc1ccc(CCN(CCC(=O)NO)S(=O)(=O)c2ccc(/C(N)=N/O)cc2)cc1", "REPORTED MEASUREMENT": "< 4.60"}

###

# SYSTEM NAME: Bone morphogenetic protein 1 (Homo sapiens)
pIC50: −log10 of the molar value. Peptide text beside a SMILES is read from it. * marks the point of attachment. NHOH = ON*
QUANTITY NAME: pIC50

{"COMPOUND": "COc1ccc(S(=O)(=O)N(CCc2ccccc2)CC(=O)NO)cc1", "QUANTITY NAME": "pIC50", "REPORTED MEASUREMENT": 4.74}
{"COMPOUND": "COc1ccc(CCN(CC(=O)CS)S(=O)(=O)c2ccc(S(C)(=O)=O)cc2)cc1", "QUANTITY NAME": "pIC50", "REPORTED MEASUREMENT": 5.33}
{"COMPOUND": "CCC(C)N(CCC(=O)NO)S(=O)(=O)c1ccc(OC)cc1 (stereo not given)", "QUANTITY NAME": "pIC50", "REPORTED MEASUREMENT": 5.77}
{"COMPOUND": "CC(=O)N1CCC[C@H]1C(=O)N[C@@H](Cc1ccc(O)cc1)C(=O)N[C@@H](Cc1ccc(O)cc1)C(=O)NCC(=O)NO (Ac-PYYG-{NHOH})", "QUANTITY NAME": "pIC50", "REPORTED MEASUREMENT": 4.38}
{"COMPOUND": "COc1ccc(CCN(CC(=O)NO)S(=O)(=O)c2ccc(OC)cc2)cc1", "QUANTITY NAME": "pIC50", "REPORTED MEASUREMENT": 4.74}
{"COMPOUND": "COc1ccc(S(=O)(=O)N(CCC(=O)NO)CCc2ccc(S(N)(=O)=O)cc2)cc1", "QUANTITY NAME": "pIC50", "REPORTED MEASUREMENT": 4.64}
{"COMPOUND": "COc1ccc(S(=O)(=O)N(CC(=O)NO)c2ccccc2)cc1", "QUANTITY NAME": "pIC50", "REPORTED MEASUREMENT": 4.16}
{"COMPOUND": "COc1ccc(S(=O)(=O)N(CCC(=O)NO)CCc2ccc([N+](=O)[O-])cc2)cc1", "QUANTITY NAME": "pIC50", "REPORTED MEASUREMENT": 4.96}
{"COMPOUND": "COc1ccc(S(=O)(=O)N(CCC(=O)NO)CCc2ccc(OC)c(OC)c2)cc1", "QUANTITY NAME": "pIC50", "REPORTED MEASUREMENT": 4.38}
{"COMPOUND": "CCC(C)N(CC(=O)NO)S(=O)(=O)c1ccc(OC)cc1 (stereo not given)", "QUANTITY NAME": "pIC50", "REPORTED MEASUREMENT": 3.95}

###

# SYSTEM NAME: Bone morphogenetic protein 1 (Homo sapiens)
# Sequence (P13497 whole entry): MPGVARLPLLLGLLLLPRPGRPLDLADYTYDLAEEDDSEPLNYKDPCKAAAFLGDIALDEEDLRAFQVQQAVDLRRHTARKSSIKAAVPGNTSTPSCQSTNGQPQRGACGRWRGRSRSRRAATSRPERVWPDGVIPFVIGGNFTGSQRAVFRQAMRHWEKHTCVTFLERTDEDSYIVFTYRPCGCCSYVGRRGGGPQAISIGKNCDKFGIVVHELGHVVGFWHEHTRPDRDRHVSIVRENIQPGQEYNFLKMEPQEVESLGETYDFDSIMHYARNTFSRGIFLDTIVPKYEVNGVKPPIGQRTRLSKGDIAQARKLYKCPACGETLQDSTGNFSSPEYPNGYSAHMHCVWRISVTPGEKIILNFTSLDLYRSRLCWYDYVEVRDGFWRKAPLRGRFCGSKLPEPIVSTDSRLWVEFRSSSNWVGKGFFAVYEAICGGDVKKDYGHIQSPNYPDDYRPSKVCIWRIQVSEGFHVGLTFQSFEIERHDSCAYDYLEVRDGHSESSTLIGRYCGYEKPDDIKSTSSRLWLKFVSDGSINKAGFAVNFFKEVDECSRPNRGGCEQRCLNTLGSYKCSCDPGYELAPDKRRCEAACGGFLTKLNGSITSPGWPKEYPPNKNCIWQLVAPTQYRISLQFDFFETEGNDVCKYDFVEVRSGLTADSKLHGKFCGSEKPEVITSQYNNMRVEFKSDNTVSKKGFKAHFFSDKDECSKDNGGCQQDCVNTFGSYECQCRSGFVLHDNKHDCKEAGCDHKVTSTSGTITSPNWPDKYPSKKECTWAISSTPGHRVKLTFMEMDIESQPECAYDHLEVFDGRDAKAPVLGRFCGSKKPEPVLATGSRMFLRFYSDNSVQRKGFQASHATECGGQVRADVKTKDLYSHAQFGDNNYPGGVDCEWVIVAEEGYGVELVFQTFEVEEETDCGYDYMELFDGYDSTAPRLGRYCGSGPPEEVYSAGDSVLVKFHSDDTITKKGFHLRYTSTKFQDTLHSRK
pIC50: −log10 of the molar value.
Recorded measurements of pIC50, one per entry

{"MOLECULE": "COc1ccc(S(=O)(=O)N(CCC(=O)NO)CCc2cccc(OC)c2)cc1", "pIC50": 5.64}
{"MOLECULE": "COc1ccc(S(=O)(=O)N(CCCC(=O)NO)c2ccccc2)cc1", "pIC50": 4.55}
{"MOLECULE": "CCCCOC(=O)CN(CC(=O)NO)S(=O)(=O)c1ccc(OC)cc1", "pIC50": 3.78}
{"MOLECULE": "COc1ccc(S(=O)(=O)N(CCC(=O)NO)CCc2ccccn2)cc1", "pIC50": 5.09}
{"MOLECULE": "O=C(CCN(CCc1ccccc1)S(=O)(=O)c1ccc(C(=O)O)cc1)NO", "pIC50": 6.00}
{"MOLECULE": "CNC(=O)[C@H](CCC(=O)O)NC(=O)C(CC(=O)O)CC(=O)NO (mixture of isomers)", "pIC50": 4.40}
{"MOLECULE": "COc1ccc(S(=O)(=O)N(CC(=O)NO)Cc2ccc(C(F)(F)F)cc2)cc1", "pIC50": 4.17}
{"MOLECULE": "COc1ccc(CCN(CCCS)S(=O)(=O)c2ccc(S(C)(=O)=O)cc2)cc1", "pIC50": 4.85}

###

# SYSTEM NAME: 72 kDa type IV collagenase (Homo sapiens, UniProt P08253)
# Sequence (P08253 whole entry): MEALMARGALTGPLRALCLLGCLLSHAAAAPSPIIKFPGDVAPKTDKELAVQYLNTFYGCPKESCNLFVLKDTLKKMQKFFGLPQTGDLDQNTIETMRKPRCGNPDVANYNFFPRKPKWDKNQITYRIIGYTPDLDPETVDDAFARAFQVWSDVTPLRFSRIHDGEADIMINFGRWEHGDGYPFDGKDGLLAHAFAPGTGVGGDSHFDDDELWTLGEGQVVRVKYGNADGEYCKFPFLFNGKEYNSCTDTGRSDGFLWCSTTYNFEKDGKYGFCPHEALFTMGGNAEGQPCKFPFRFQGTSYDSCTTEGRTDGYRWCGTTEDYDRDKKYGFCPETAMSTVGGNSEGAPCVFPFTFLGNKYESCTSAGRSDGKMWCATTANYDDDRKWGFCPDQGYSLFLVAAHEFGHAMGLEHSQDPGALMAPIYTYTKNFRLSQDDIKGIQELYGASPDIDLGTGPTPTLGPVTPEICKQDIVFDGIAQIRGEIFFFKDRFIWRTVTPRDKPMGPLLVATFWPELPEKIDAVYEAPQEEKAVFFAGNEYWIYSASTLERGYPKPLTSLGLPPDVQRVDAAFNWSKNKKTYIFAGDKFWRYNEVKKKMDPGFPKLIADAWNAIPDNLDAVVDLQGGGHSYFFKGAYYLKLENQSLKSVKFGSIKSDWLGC
# METHOD SUMMARY: Inhibition of para-amino phenylmercuric acetate-activated MMP2 using Mca-P-L-G-L-Dap(Dnp)-A-R-NH2 as substrate after 1 hr by fluorescence assay
pIC50: −log10 of the molar value.

{"TEST SMILES": "COc1ccc(CCN(CCC(=O)NO)S(=O)(=O)c2ccc(/C(N)=N/O)cc2)cc1", "pIC50": "< 4.60"}
{"TEST SMILES": "COc1ccc(S(=O)(=O)N(CC(=O)NO)Cc2ccc(Cl)cc2)cc1", "pIC50": 6.85}
{"TEST SMILES": "COc1ccc(CCN(CCC(=O)NO)S(=O)(=O)c2ccc(NC(=O)NCc3ccccc3)cc2)cc1", "pIC50": "< 4.60"}
{"TEST SMILES": "COc1ccc(CCN(CCC(=O)NO)S(=O)(=O)c2ccc(S(C)(=O)=O)cc2)cc1", "pIC50": "< 5.22"}

###

# Tested on: 3T3-L1
# METHOD SUMMARY: Cytotoxicity against mouse 3T3L1 cells
# Format: cell-based
pIC50: −log10 of the molar value.

{"TEST SMILES": "COc1ccc(CCN(CCC(=O)NO)S(=O)(=O)c2ccc(/C(N)=N/O)cc2)cc1", "SYSTEM NAME": "3T3-L1", "pIC50": 3.82}

###

# SYSTEM NAME: Interstitial collagenase (Homo sapiens, UniProt P03956)
# Sequence (P03956 whole entry): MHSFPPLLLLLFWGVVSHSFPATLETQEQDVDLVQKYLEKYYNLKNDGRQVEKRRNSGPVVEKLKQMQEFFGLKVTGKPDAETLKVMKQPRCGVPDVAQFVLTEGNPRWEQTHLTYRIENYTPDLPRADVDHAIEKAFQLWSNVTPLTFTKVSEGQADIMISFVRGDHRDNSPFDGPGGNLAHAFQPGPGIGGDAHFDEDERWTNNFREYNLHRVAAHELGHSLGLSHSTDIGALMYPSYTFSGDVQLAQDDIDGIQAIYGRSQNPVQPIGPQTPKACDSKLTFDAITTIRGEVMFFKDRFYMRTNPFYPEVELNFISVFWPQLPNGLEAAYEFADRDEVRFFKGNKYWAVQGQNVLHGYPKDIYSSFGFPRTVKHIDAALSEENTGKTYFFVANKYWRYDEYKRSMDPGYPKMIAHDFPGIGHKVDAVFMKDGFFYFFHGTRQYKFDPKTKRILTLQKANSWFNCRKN
# METHOD SUMMARY: Inhibition of para-amino phenylmercuric acetate-activated MMP1 using Mca-P-L-G-L-Dap(Dnp)-A-R-NH2 as substrate after 1 hr by fluorescence assay
pIC50: −log10 of the molar value.
Recorded measurements of pIC50, one per entry

{"TEST SMILES": "COc1ccc(CCN(CCC(=O)NO)S(=O)(=O)c2ccc(/C(N)=N/O)cc2)cc1", "pIC50": "< 4.60"}
{"TEST SMILES": "COc1ccc(CCN(CCC(=O)NO)S(=O)(=O)c2ccc(NC(=O)NCc3ccccc3)cc2)cc1", "pIC50": "< 4.60"}
